Molecular target: EGFR (human) (UniProt P00533)
Sequence (P00533 whole entry, looked up): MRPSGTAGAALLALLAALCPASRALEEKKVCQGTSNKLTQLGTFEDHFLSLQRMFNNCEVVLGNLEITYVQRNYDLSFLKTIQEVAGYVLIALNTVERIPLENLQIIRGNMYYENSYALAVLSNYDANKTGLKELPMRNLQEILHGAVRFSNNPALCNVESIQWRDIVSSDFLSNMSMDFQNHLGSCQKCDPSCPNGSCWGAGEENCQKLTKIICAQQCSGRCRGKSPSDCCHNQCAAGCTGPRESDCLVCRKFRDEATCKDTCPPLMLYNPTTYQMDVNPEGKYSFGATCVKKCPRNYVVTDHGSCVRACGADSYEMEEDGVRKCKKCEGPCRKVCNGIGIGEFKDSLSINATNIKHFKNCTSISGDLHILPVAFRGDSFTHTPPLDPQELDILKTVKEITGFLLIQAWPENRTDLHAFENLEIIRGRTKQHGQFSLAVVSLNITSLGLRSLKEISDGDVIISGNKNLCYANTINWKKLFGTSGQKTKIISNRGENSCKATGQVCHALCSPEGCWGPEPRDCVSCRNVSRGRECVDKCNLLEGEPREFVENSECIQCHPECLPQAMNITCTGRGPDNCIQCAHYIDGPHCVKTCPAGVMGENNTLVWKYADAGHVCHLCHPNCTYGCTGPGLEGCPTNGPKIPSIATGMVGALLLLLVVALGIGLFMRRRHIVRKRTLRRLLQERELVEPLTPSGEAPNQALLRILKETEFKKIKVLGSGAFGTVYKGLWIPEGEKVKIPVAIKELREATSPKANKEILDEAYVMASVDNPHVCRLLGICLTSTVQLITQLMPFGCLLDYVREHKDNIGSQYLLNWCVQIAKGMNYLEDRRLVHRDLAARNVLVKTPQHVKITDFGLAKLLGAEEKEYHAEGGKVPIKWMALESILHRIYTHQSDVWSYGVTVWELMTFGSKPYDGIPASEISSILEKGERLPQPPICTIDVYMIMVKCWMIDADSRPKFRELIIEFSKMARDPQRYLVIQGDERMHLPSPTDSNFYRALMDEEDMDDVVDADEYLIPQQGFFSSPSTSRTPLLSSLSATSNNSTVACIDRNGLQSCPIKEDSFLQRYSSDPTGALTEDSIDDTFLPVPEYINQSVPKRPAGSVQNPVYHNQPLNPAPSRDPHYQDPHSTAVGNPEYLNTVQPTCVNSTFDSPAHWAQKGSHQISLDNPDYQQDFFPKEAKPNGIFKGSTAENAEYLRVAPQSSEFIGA
Assay: Free Choice Kinase Assay Projects, Flashplate
Conditions: compound 10.0 µM; ATP 0.3 µM
metric: residual activity (%)

Examples with their reported residual activity follow.
CSc1ccc(CSc2nc(-c3ccncc3)c(-c3ccc(Br)cc3)[nH]2)cc1 ... 49
CSc1nc(-c2ccnc(NC(=O)C3CCCC3)c2)c(-c2ccc(F)cc2)n1C ... 30
COc1ccc(C(=O)Nc2cc(-c3nc(SC)n(C)c3-c3ccc(F)cc3)ccn2)cc1 ... 7

(a) CSc1nc(-c2ccnc(N(C(=O)C3CC3)C(=O)C3CC3)c2)c(-c2ccc(F)cc2)n1C
(b) CC(Nc1cc(-c2nc(SCc3ccccc3)[nH]c2-c2ccc(F)cc2)ccn1)c1ccccc1 (stereo not drawn)
## Task Please indicate which entry, a or b , has the lower recorded residual activity value. Respond using the label that marks the chosen record.
## Result b
(b: 16%, a: 26%)

(P) CSc1ccccc1CSc1nc(-c2ccncc2)c(-c2ccc(F)cc2)[nH]1
(Q) On1c(CCc2ccccc2)nc(-c2ccncc2)c1-c1ccc(F)cc1
## Task Of P and Q , which one carries the higher reported residual activity? Respond using the label that marks the chosen record.
## Result P

* * *

Target: CSNK2A1 (human) (UniProt P68400)
Sequence (P68400 whole entry, looked up): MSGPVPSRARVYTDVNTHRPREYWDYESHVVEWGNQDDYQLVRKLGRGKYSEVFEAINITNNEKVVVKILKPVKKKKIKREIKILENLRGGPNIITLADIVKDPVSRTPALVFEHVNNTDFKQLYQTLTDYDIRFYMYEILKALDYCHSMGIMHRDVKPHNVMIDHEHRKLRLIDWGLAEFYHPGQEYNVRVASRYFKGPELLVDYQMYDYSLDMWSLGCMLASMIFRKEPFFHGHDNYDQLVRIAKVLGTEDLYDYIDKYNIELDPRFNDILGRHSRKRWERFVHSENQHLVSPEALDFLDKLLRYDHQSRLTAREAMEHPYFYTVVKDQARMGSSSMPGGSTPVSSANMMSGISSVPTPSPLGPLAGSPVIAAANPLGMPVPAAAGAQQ
Assay: Free Choice Kinase Assay Projects, Flashplate
Conditions: compound 10.0 µM; ATP 0.1 µM
metric: residual activity (%)

CSc1nc(-c2ccnc(N(C(=O)C3CC3)C(=O)C3CC3)c2)c(-c2ccc(F)cc2)n1C ... 90
CSc1nc(-c2ccnc(NC(C)=O)c2)c(-c2ccc(F)cc2)n1C ... 88
CSc1nc(-c2ccnc(NC(=O)C3CC3)c2)c(-c2ccc(F)cc2)n1C ... 89
Oc1ccccc1CSc1nc(-c2ccncc2)c(-c2ccc(F)cc2)[nH]1 ... 90
CSc1nc(-c2ccnc(NC(=O)C3CCCC3)c2)c(-c2ccc(F)cc2)n1C ... 91

Source of measurements: the kinase profiling compilation of Christmann-Franck et al. (2016)
